Measured pIC50 accompanies every entry in the list below.
system: SK-MEL-28 Melanoma; experiment: In vitro cytotoxicity, free drugs on SK-MEL-28; assay type: cell-based; details: Homo sapiens, SK-MEL-28; free drug
pIC50: −log10 of the molar value. Starred links: 1 amine or outer side, 2 acyl side, 3 side chain; linkers in the order of their positions; H or OH if unused. Non-standard residues stand in square brackets, D forms with d. Residues, ends and D or L forms follow the SMILES beside them. *: point of attachment. Dolaproine = CO[C@@H]([C@@H]1CCCN1)[C@@H](C)C(=O)O; X3 = CC(C)[C@@H](C(=O)[*:2])N(C)CCCCN(C)[*:1]; X5 = CC(C)[C@@H](C(=O)[*:2])N(C)CCCN(C)[*:1]; X7 = CC(C)[C@@H](C(=O)[*:2])N(C)CCN(C)[*:1]; Dil = CC[C@H](C)[C@H](NC)[C@@H](CC(=O)O)OC; Boc = CC(C)(C)OC(=O)*

{"columns": ["Compound", "pIC50"],
 "data": [
  ["CC[C@H](C)[C@@H]([C@@H](CC(=O)N1CCC[C@H]1[C@H](OC)[C@@H](C)C(=O)N[C@@H](Cc1ccccc1)C(=O)O)OC)N(C)C(=O)[C@@H](NC(=O)[C@H](C(C)C)N(C)CCCN(C)C(=O)OC(C)(C)C)C(C)C [Compound 25, (Boc-N-methyl)-propyl-AF] (Boc-[X5]V[Dil][Dolaproine]F-OH)", 7.76],
  ["CC[C@H](C)[C@@H]([C@@H](CC(=O)N1CCC[C@H]1[C@H](OC)[C@@H](C)C(=O)N[C@@H](Cc1ccccc1)C(=O)O)OC)N(C)C(=O)[C@@H](NC(=O)[C@H](C(C)C)N(C)CCN(C)C(=O)OC(C)(C)C)C(C)C [Compound 24, Boc-(N-methyl-ethyl)-AF] (Boc-[X7]V[Dil][Dolaproine]F-OH)", 7.86],
  ["CC[C@H](C)[C@@H]([C@@H](CC(=O)N1CCC[C@H]1[C@H](OC)[C@@H](C)C(=O)N[C@@H](Cc1ccccc1)C(=O)O)OC)N(C)C(=O)[C@@H](NC(=O)[C@H](C(C)C)N(C)CCCCN(C)C(=O)OC(C)(C)C)C(C)C [Compound 16, (Boc-N-methyl)-butyl-AF] (Boc-[X3]V[Dil][Dolaproine]F-OH)", 8.36]
]}
